experimental-system: T1, HA69 peptide on HLA DQB1*06:02/DQA1*01:02 (DQ0602) (human)
T1 peptide: AMERNAGSGIIISDT
method: activation reporter or marker
measured-metric: binding result

| binder | meas-value |
| --- | --- |
| …-1 (TCR) alpha TRAV26-2 TRAJ41 CDR3: CILRDSNSGYALNF beta TRBV7-8 TRBJ1-5 CDR3: CASSSGTHRSPQHF | no recognition |
| TCR CAGSPSQGGSEKLVF / CSARPLGTSGRDEQFF (TCR) alpha TRAV35 TRAJ57 CDR3: CAGSPSQGGSEKLVF beta TRBV20-1 TRBJ2-1 CDR3: CSARPLGTSGRDEQFF | no recognition |
| TCR100 (TCR) alpha TRAV8-3 TRAJ24 CDR3: CAVVTTDSWGKFQF beta TRBV19 TRBJ1-5 CDR3: CASSDSPTGHGNQPQHF | recognises |
| TCR CATVGYNTDKLIF / CASSQGQAATNEKLFF (TCR) alpha TRAV17 TRAJ34 CDR3: CATVGYNTDKLIF beta TRBV4-3 TRBJ1-4 CDR3: CASSQGQAATNEKLFF | recognises |
| TCR CAVNRADSWGKLQF / CASSIDKTGHSNQPQHF (TCR) alpha TRAV12-2 TRAJ24 CDR3: CAVNRADSWGKLQF beta TRBV19 TRBJ1-5 CDR3: CASSIDKTGHSNQPQHF | recognises |
| TCR806 (TCR) alpha TRAV26-1 TRAJ33 CDR3: CIVRGGTNMDSNYQLIW beta TRBV19 TRBJ1-6 CDR3: CASTGQGNSPLHF | recognises |
| TCR CVVRGQAGTALIF / CASSGHWNTEAFF (TCR) alpha TRAV10 TRAJ15 CDR3: CVVRGQAGTALIF beta TRBV19 TRBJ1-1 CDR3: CASSGHWNTEAFF | recognises |

Numbers sourced from paper PMC9371724.
